- methodSummary: Cmax in diabetic Zucker fatty rat model measured during OGTT at 10 mg/kg, po administered 30 mins prior to glucose challenge
- Assay type: ADME, organism-based
- Design: dose 10 mg/kg, route oral
- conditions: in vivo
metric: Cmax (µg/mL)
Give just the numeric value; µg/mL need not be written.

INPUT: Requested read-out: Cmax. Entry: CCOC(CC(=O)O)c1ccc(OCc2ccccc2C)cc1 (stereo unspecified)
OUTPUT: 51

* * *

- methodSummary: AUC in diabetic Zucker fatty rat model measured during OGTT at 3 mg/kg, po administered 30 mins prior to glucose challenge
- Type: ADME, organism-based
- Parameters: dose 3 mg/kg, route oral
- conditions: in vivo
metric: AUC at 0.5 h (ng·h/mL)
Give just the numeric value; ng·h/mL need not be written.

INPUT: Requested read-out: AUC at 0.5 h. Entry: CCOC(CC(=O)O)c1ccc(OCc2ccccc2C)cc1 (stereo unspecified)
OUTPUT: 19000

* * *

- methodSummary: Cmax in F344 rat at 3 mg/kg, po
- Format: ADME, organism-based
- Parameters: dose 3 mg/kg, route oral
- conditions: in vivo
metric: Cmax

INPUT: Requested read-out: Cmax. Entry: CCOC(CC(=O)O)c1ccc(OCc2ccccc2C)cc1 (stereo unspecified)
OUTPUT: 3300 ng/mL

* * *

- methodSummary: Oral bioavailability in F344 rat at 10 mg/kg
- Format: ADME, organism-based
- conditions: in vivo
metric: bioavailability (%)
Give just the numeric value; % need not be written.

INPUT: Requested read-out: bioavailability. Entry: `Cc1cccc(C)c1-c1cccc(COc2ccc(CCC(=O)O)cn2)c1`
OUTPUT: 24

* * *

- targetOrTestSystem: Free fatty acid receptor 1 (Homo sapiens, UniProt O14842)
- Sequence (O14842 whole entry): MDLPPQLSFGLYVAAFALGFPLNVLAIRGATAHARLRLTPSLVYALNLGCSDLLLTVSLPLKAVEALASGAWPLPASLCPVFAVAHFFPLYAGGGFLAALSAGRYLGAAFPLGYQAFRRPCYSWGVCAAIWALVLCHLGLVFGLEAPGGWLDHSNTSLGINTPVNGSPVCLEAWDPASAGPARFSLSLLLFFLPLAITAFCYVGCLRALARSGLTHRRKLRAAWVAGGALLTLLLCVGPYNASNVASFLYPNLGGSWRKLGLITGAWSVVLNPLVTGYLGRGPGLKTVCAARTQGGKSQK
- methodSummary: Agonist activity at human GPR40 expressed in CHO cells by calcium flux assay
metric: EC50 (nM)
Give just the numeric value; nM need not be written.

{"compound": "CCOC(CC(=O)O)c1ccc(OCc2ccc(C)cc2)cc1 (stereo unspecified)", "targetOrTestSystem": "Free fatty acid receptor 1 (Homo sapiens, UniProt O14842)", "valueUnits": "nM", "EC50": 370}
{"compound": "Cc1cccc(C)c1-c1cccc(COc2ncc(CCC(=O)O)s2)c1", "targetOrTestSystem": "Free fatty acid receptor 1 (Homo sapiens, UniProt O14842)", "valueUnits": "nM", "EC50": 65}

INPUT: Requested read-out: EC50. Entry: Cc1cccc(C)c1-c1cccc(COc2ccc(CC(C)C(=O)O)cn2)c1 (stereo unspecified)
OUTPUT: 65

INPUT: Requested read-out: EC50. Entry: `Cc1cccc(C)c1-c1cccc(COc2ncc(CCC(=O)O)cn2)c1`
OUTPUT: 130

* * *

- methodSummary: AUC in diabetic Zucker fatty rat model measured during OGTT at 1 mg/kg, po administered 30 mins prior to glucose challenge
- Assay type: ADME, organism-based
- Design: dose 1 mg/kg, route oral
- conditions: in vivo
metric: AUC at 0.5 h (ng·h/mL)
Give just the numeric value; ng·h/mL need not be written.

INPUT: Requested read-out: AUC at 0.5 h. Entry: CCOC(CC(=O)O)c1ccc(OCc2ccccc2C)cc1 (stereo unspecified)
OUTPUT: 4800

* * *

- targetOrTestSystem: Free fatty acid receptor 1 (Rattus norvegicus, UniProt Q8K3T4)
- Sequence (Q8K3T4 whole entry): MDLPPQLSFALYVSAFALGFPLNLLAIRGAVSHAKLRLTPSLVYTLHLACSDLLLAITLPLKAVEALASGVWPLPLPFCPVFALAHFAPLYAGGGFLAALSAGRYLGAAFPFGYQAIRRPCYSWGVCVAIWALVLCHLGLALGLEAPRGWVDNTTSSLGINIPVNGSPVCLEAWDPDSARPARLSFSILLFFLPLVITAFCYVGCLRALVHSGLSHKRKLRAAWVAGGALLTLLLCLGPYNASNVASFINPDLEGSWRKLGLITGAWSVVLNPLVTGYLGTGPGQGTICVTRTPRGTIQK
- methodSummary: Agonist activity at rat GPR40 expressed in CHO cells by calcium flux assay
# maps each entry to its log10(EC50)
Base-10 log of EC50, unit nM.

{"molecule": "Cc1cccc(C)c1-c1cccc(COc2ncc(CCC(=O)O)cn2)c1", "targetOrTestSystem": "Free fatty acid receptor 1 (Rattus norvegicus, UniProt Q8K3T4)", "log10(EC50)": 3.15}
{"molecule": "Cc1cccc(C)c1-c1cccc(COc2ccc(CCC(=O)O)c(C)n2)c1", "targetOrTestSystem": "Free fatty acid receptor 1 (Rattus norvegicus, UniProt Q8K3T4)", "log10(EC50)": 3.04}
{"molecule": "Cc1cccc(C)c1-c1cccc(COc2cnc(CCC(=O)O)cn2)c1", "targetOrTestSystem": "Free fatty acid receptor 1 (Rattus norvegicus, UniProt Q8K3T4)", "log10(EC50)": 1.20}

INPUT: Requested read-out: log10(EC50). Entry: `Cc1cccc(C)c1-c1cccc(COc2ccc(CCC(=O)O)cn2)c1`
OUTPUT: 1.58

INPUT: Requested read-out: log10(EC50). Entry: `Cc1cccc(C)c1-c1cccc(COc2ncc(CCC(=O)O)s2)c1`
OUTPUT: 2.73

INPUT: Requested read-out: log10(EC50). Entry: CCOC(CC(=O)O)c1ccc(OCc2ccccc2)nc1 (stereo unspecified)
OUTPUT: 2.88

* * *

- methodSummary: Clearance in F344 rat at 2 mg/kg, iv
- Format: ADME, organism-based
- Parameters: dose 2 mg/kg, route intravenous
- conditions: in vivo
metric: clearance (L/h/kg)
Give just the numeric value; L/h/kg need not be written.

INPUT: Requested read-out: clearance. Entry: CCOC(CC(=O)O)c1ccc(OCc2ccccc2C)cc1 (stereo unspecified)
OUTPUT: 0.37

* * *

- methodSummary: Lipophilicity, log D of the compound at pH 7.4
- Type: physicochemical
- conditions: buffer
metric: logD

{"compound": "CCOC(CC(=O)O)c1ccc(OCc2cccc(-c3c(C)cccc3C)c2)nc1 (stereo not given)", "reported": 2.8}
{"compound": "Cc1cccc(C)c1-c1cccc(COc2ccc(C(C)CC(=O)O)cn2)c1 (stereo not given)", "reported": 3.3}
{"compound": "CCOC(CC(=O)O)c1ccc(OCc2ccccc2C)cc1 (stereo not given)", "reported": 1.2}
{"compound": "Cc1cccc(C)c1-c1cccc(COc2ccc(CCC(=O)O)cc2)c1", "reported": "> 3.3"}
{"compound": "CCOC(CC(=O)O)c1ccc(OCc2ccccc2)nc1 (stereo not given)", "reported": 0.7}
{"compound": "Cc1cccc(C)c1-c1cccc(COc2ccc(CCC(=O)O)cn2)c1", "reported": 3}
{"compound": "Cc1cccc(C)c1-c1cccc(COc2cnc(CCC(=O)O)cn2)c1", "reported": 2.5}
{"compound": "Cc1cccc(C)c1-c1cccc(COc2ccc(CCC(=O)O)nc2)c1", "reported": 2.4}

INPUT: Requested read-out: logD. Entry: `Cc1cccc(C)c1-c1cccc(COc2ccc(CCC(=O)O)s2)c1`
OUTPUT: > 2.4

INPUT: Requested read-out: logD. Entry: `Cc1cccc(C)c1-c1cccc(COc2ncc(CCC(=O)O)cn2)c1`
OUTPUT: 2

* * *

- methodSummary: Cmax in diabetic Zucker fatty rat model measured during OGTT at 3 mg/kg, po administered 30 mins prior to glucose challenge
- Type: ADME, organism-based
- Parameters: dose 3 mg/kg, route oral
- conditions: in vivo
metric: Cmax (µg/mL)
Give just the numeric value; µg/mL need not be written.

INPUT: Requested read-out: Cmax. Entry: CCOC(CC(=O)O)c1ccc(OCc2ccccc2C)cc1 (stereo unspecified)
OUTPUT: 14

* * *

- methodSummary: Half life in F344 rat at 2 mg/kg, iv
- Format: ADME, organism-based
- Parameters: dose 2 mg/kg, route intravenous
- conditions: in vivo
metric: half-life (min)
Give just the numeric value; min need not be written.

INPUT: Requested read-out: half-life. Entry: CCOC(CC(=O)O)c1ccc(OCc2ccccc2C)cc1 (stereo unspecified)
OUTPUT: 22.2

* * *

- targetOrTestSystem: Free fatty acid receptor 1 (Rattus norvegicus, UniProt Q8K3T4)
- methodSummary: Agonist activity at rat GPR40 expressed in CHO cells by calcium flux assay
# maps each entry to its EC50

Some compounds with recorded EC50:
{"compound": "CCOC(CC(=O)O)c1ccc(OCc2cccc(C)c2)cc1 (stereo unspecified)", "targetOrTestSystem": "Free fatty acid receptor 1 (Rattus norvegicus, UniProt Q8K3T4)", "EC50": "78 nM"}
{"compound": "Cc1cccc(C)c1-c1cccc(COc2ccc(CC(C)C(=O)O)cn2)c1 (stereo unspecified)", "targetOrTestSystem": "Free fatty acid receptor 1 (Rattus norvegicus, UniProt Q8K3T4)", "EC50": "2100 nM"}
{"compound": "Cc1cc(CCC(=O)O)cnc1OCc1cccc(-c2c(C)cccc2C)c1", "targetOrTestSystem": "Free fatty acid receptor 1 (Rattus norvegicus, UniProt Q8K3T4)", "EC50": "9100 nM"}
{"compound": "Cc1cccc(C)c1-c1cccc(COc2ccc(C(C)CC(=O)O)cn2)c1 (stereo unspecified)", "targetOrTestSystem": "Free fatty acid receptor 1 (Rattus norvegicus, UniProt Q8K3T4)", "EC50": "320 nM"}
{"compound": "Cc1cccc(C)c1-c1cccc(COc2ccc(C(F)CC(=O)O)cn2)c1 (stereo unspecified)", "targetOrTestSystem": "Free fatty acid receptor 1 (Rattus norvegicus, UniProt Q8K3T4)", "EC50": "96 nM"}

The record that follows has no EC50 shown yet.
INPUT: Requested read-out: EC50. Entry: COC(Cc1ccc(OCc2cccc(-c3c(C)cccc3C)c2)nc1)C(=O)O (stereo unspecified)
OUTPUT: > 10000 nM

All values here come from ChEMBL document CHEMBL3286210.
